molecular target: EGFR (Human), P00533 [T790M/L858R]; details: nci-h1975
Sequence (P00533 whole entry T790M/L858R, looked up): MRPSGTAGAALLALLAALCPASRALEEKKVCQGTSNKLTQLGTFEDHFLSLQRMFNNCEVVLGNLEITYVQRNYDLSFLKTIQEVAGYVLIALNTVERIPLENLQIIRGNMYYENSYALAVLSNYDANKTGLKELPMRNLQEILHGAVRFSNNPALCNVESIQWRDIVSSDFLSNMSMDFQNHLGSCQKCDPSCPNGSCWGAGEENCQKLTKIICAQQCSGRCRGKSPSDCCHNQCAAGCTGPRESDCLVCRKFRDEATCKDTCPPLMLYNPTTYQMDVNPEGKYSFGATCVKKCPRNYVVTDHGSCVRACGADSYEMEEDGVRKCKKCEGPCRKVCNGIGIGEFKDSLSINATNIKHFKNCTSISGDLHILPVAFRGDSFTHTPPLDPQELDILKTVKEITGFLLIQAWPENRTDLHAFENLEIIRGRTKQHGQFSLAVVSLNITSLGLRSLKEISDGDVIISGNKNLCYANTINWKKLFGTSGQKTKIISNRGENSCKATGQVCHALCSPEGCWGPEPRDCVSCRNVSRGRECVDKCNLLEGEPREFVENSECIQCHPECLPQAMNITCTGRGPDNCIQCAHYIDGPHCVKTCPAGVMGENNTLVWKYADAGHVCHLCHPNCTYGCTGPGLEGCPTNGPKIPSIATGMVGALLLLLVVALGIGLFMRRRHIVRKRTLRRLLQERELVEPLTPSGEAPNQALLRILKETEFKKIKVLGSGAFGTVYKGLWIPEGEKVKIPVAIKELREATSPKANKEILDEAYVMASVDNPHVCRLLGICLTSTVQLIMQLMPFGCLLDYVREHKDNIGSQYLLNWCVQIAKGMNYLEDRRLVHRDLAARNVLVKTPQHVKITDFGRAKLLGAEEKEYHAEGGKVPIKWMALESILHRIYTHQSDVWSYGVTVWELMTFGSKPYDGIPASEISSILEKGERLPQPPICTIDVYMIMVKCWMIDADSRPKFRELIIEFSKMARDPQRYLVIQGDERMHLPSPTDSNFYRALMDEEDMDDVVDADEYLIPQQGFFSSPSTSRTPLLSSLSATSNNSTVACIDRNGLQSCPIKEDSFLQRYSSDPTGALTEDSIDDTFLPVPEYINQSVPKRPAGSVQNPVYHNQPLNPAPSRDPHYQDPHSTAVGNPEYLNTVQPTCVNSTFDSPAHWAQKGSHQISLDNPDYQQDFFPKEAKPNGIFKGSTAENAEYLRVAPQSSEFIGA
measuredProperty: EC50 (µM)

INSERT INTO assay_data (molecule, measuredproperty, experimentalvalue) VALUES
  ('CC(C)n1nc(N2CCC2)c2cnc(Nc3ccnc(-c4cnn(S(=O)(=O)C5CC5)c4)n3)cc21', 'EC50', 0.158),
  ('CC(C)n1nc(OC2CCOC2)c2cnc(Nc3ccnc(-c4cnn(S(=O)(=O)C5CC5)c4)n3)cc21 (stereo unspecified)', 'EC50', 0.798),
  ('CC(C)n1nc(N2CC[C@@H](C#N)C2)c2cnc(Nc3ccnc(-c4cnn(S(=O)(=O)C5CC5)c4)n3)cc21', 'EC50', 0.121),
  ('CC(C)NC(=O)C1CN(c2nn(C(C)C)c3cc(Nc4ccnc(-c5cnn(S(=O)(=O)C6CC6)c5)n4)ncc23)C1', 'EC50', 0.825),
  ('CC(C)n1nc(N2CC(C#N)CC2=O)c2cnc(Nc3ccnc(N4CCC(C)(O)CC4)n3)cc21 (stereo unspecified)', 'EC50', 1.09),
  ('CC(C)n1nc(N2CC(C(=O)N3CC[C@@H](O)C3)C2)c2cnc(Nc3ccnc(-c4cnn(S(=O)(=O)C5CC5)c4)n3)cc21', 'EC50', 2.52);

P. CNC(=O)C1CN(c2nn(C(C)C)c3cc(Nc4ccnc(-c5cnn(S(=O)(=O)C6CC6)c5)n4)ncc23)C1
Q. CC(C)n1nc(N2CC(C(C)(C)C#N)C2)c2cnc(Nc3ccnc(-c4cnn(S(=O)(=O)C5CC5)c4)n3)cc21
R. CC(C)n1nc(N2CCN=C2O)c2cnc(Nc3ccnc(-c4cnn(S(=O)(=O)C5CC5)c4)n3)cc21
Sort the molecules on EC50; start with the lowest figure. # format: label list in the order the request specifies
R, P, Q
(R: 0.237 µM, P: 0.65 µM, Q: 1.38 µM)

====

target: EGFR (Human), P00533 [T790M/L858R]; conditions: nci-h1975
pEC50: −log10 of the molar value.
measuredProperty: pEC50

Guide cases for pEC50, answers given:
INSERT INTO assay_data (molecule, subjectoftest, measuredproperty, experimentalvalue) VALUES
  ('CCN1CCN(c2nn(C(C)C)c3cc(Nc4ccnc(-c5cnn(S(=O)(=O)C6CC6)c5)n4)ncc23)CC1', 'EGFR (Human), P00533 [T790M/L858R]', 'pEC50', 5.99),
  ('CC(C)n1nc(N2CCS(=O)(=O)CC2)c2cnc(Nc3ccnc(-c4cnn(S(=O)(=O)C5CC5)c4)n3)cc21', 'EGFR (Human), P00533 [T790M/L858R]', 'pEC50', 5.69);

1. CC(C)n1nc(N2CC(C(=O)NCC(F)(F)F)C2)c2cnc(Nc3ccnc(-c4cnn(S(=O)(=O)C5CC5)c4)n3)cc21
2. CCS(=O)(=O)n1cc(-c2nccc(Nc3cc4c(cn3)c(NC3COC3)nn4C(C)C)n2)cn1
Could you determine which record has the numerically smaller pEC50? Candidates: 1 and 2 Mark your answer with the label of the selected entry.
2
(2: 6.04, 1: 6.71)

I. CC(C)n1nc(N2CCOCC2)c2cnc(Nc3ccnc(-c4cnn(S(=O)(=O)C5CC5)c4)n3)cc21
II. CCC(C)n1nc(N2CC[C@H](O)C2=O)c2cnc(Nc3ccnc(-c4cnn(S(=O)(=O)C5CC5)c4)n3)cc21 (stereo partly drawn)
Between the two listed entries I and II , which has its pEC50 at the higher number? # reply format: chosen label
I
(I: 6.57, II: 6.16)

1. CC(C)n1nc(N2CC[C@H](O)C2)c2cnc(Nc3ccnc(-c4cnn(S(=O)(=O)C5CC5)c4)n3)cc21
2. CC(C)n1nc(N2CC[C@H](O)C2=O)c2cnc(Nc3ccnc(-c4cnn(S(=O)(=O)C5CC5)c4)n3)cc21
3. CC1CN(c2nn(C(C)C)c3cc(Nc4ccnc(-c5cnn(S(=O)(=O)C6CC6)c5)n4)ncc23)C(=O)N1 (stereo not drawn)
4. CCC(C)n1nc(N2CCS(=N)(=O)CC2)c2cnc(Nc3ccnc(N4CCC(C)(O)CC4)n3)cc21 (stereo not drawn)
Task field, ranking: reported pEC50, descending order. # the answer lists labels in the order requested
1, 3, 2, 4
(1: 6.70, 3: 6.42, 2: 6.20, 4: 5.00)

====

molecular target: EGFR (Human), P00533 [T790M/L858R]; details: nci-h1975
measuredProperty: EC50 (µM)

INSERT INTO measurements (compound, unitslabel, experimentalvalue) VALUES
  ('CC[C@H](C)n1nc(N2CC[C@H](O)C2)c2cnc(Nc3ccnc(N4CC[C@](C)(O)[C@H](F)C4)n3)cc21', 'µM', 0.371);

I. CC(C)n1nc(N2CC(C)(O)C2)c2cnc(Nc3ccnc(-c4cnn(S(=O)(=O)C5CC5)c4)n3)cc21
II. CC(C)n1nc(N2CCC(O)C2)c2cnc(Nc3ccnc(-c4cnn(S(=O)(=O)C5CC5)c4)n3)cc21 (centres undefined)
III. Cc1cn[nH]c1-c1nn(C(C)C)c2cc(Nc3ccnc(N4CCC(O)C(C)(C)C4)n3)ncc12 (centres undefined)
In this exercise, place the 3 compounds in ascending sequence of their recorded EC50. List the labels in the requested order.
II, I, III
(II: 0.201 µM, I: 0.289 µM, III: 1.71 µM)

====

molecular target: EGFR (Human), P00533 [T790M/L858R]
measuredProperty: Ki (nM)
Express the result in nM but write the number alone.

Need Ki of COCC1CN(c2nn(C(C)C)c3cc(Nc4ccnc(-c5cnn(S(=O)(=O)C6CC6)c5)n4)ncc23)C1 , thanks.
1

====

molecular target: EGFR (Human), P00533 [T790M/L858R]; settings: nci-h1975
measuredProperty: EC50 (nM)

INSERT INTO results (compound, subjectoftest, measuredproperty, experimentalvalue) VALUES
  ('CC(C)n1nc(N2CC[S+]([O-])CC2)c2cnc(Nc3ccnc(-c4cnn(S(=O)(=O)C5CC5)c4)n3)cc21', 'EGFR (Human), P00533 [T790M/L858R]', 'EC50', 835),
  ('CC(C)n1nc(NCCC(N)=O)c2cnc(Nc3ccnc(-c4cnn(S(=O)(=O)C5CC5)c4)n3)cc21', 'EGFR (Human), P00533 [T790M/L858R]', 'EC50', 3970),
  ('CC(C)n1nc(N2CC(C)(CO)C2)c2cnc(Nc3ccnc(-c4cnn(S(=O)(=O)C5CC5)c4)n3)cc21', 'EGFR (Human), P00533 [T790M/L858R]', 'EC50', 620),
  ('CC(C)n1nc(N2CC(C(=O)N3CCOCC3)C2)c2cnc(Nc3ccnc(-c4cnn(S(=O)(=O)C5CC5)c4)n3)cc21', 'EGFR (Human), P00533 [T790M/L858R]', 'EC50', 344),
  ('CC[C@H](C)n1nc(N2CC[C@@H](O)C2)c2cnc(Nc3ccnc(N4CC[C@](C)(O)[C@H](F)C4)n3)cc21', 'EGFR (Human), P00533 [T790M/L858R]', 'EC50', 521);

1. CC(n1nc(N2CCNC2=O)c2cnc(Nc3ccnc(N4CCC(C)(O)CC4)n3)cc21)C(F)(F)F (stereo not drawn)
2. CC(C)n1nc(NC(C)(C)C#N)c2cnc(Nc3ccnc(N4CC[C@H](O)[C@H](F)C4)n3)cc21
Compare EC50: is it lower for 1 or for 2 ? Pick one; state its label.
1
(1: 1070 nM, 2: 8270 nM)

====

target: EGFR (Human), P00533 [T790M/L858R]; settings: nci-h1975
measuredProperty: EC50 (µM)

INSERT INTO measurements (compound, measuredproperty, experimentalvalue) VALUES
  ('CC(C)n1nc(N2CC[C@@H](O)C2)c2cnc(Nc3ccnc(N4CCC(C)(O)CC4)n3)cc21', 'EC50', 0.831),
  ('CC(C)n1nc(N2CC3(C2)CS(=O)(=O)C3)c2cnc(Nc3ccnc(N4CCC(C)(O)CC4)n3)cc21', 'EC50', 3.09),
  ('CC(C)n1nc(N2CC[C@H](N)C2=O)c2cnc(Nc3ccnc(N4CCC(C)(O)CC4)n3)cc21', 'EC50', 9.73),
  ('CC(C)n1nc(NCC(N)=O)c2cnc(Nc3ccnc(-c4cnn(S(=O)(=O)C5CC5)c4)n3)cc21', 'EC50', 5.44);

A. CC(C)n1nc(NC(C)(C)C)c2cnc(Nc3ccnc(-c4cnn(S(=O)(=O)C5CC5)c4)n3)cc21
B. CCC(C)n1nc(N2CC(F)(F)C2)c2cnc(Nc3ccnc(N4CCC(C)(O)CC4)n3)cc21 (stereo not drawn)
C. CCC(C)n1nc(N2CC3(COC3)C2)c2cnc(Nc3ccnc(-c4cnn(S(=O)(=O)C5CC5)c4)n3)cc21 (stereo not drawn)
Ordering criterion: EC50; begin with the maximum. In your reply, arrange the labels in the requested order.
A, B, C
